Tested on: MV-4-11 cells
EXPERIMENTAL DETAILS: Inhibitory effect on MV-4-11 cells (CellTiter-Glo)
Type: cell-based
TEST CONTEXT: Homo sapiens, MV4-11; 72 hours, CellTiter-Glo; read-out: MV-4-11
Would you mind telling me the reported IC50 of each entry?
Reply with the number and its unit after it.

Input: Name the reported IC50 value associated with the compound CCS(=O)(=O)Cc1ccc2c(c1)-c1nn(C)c(=O)cc1C(C)N=C2c1ccc(F)cc1 (stereo not drawn)
Output: 30 nM

Input: Bench note: what IC50 did CCS(=O)(=O)Nc1cc2c(cc1F)C(c1ccc(Cl)cc1)=N[C@@H](C)c1cc(=O)n(C)cc1-2 show?
Output: 1 nM

Input: // query IC50 value for entry CCS(=O)(=O)Cc1cc2c(cc1O)C(c1ccc(F)cc1)=N[C@@H](C)c1cc(=O)n(C)cc1-2
Output: 3 nM
